- Tested on: KB
- test.details: Cytotoxicity against KB cell line
- Type: functional
- applied.conditions: Homo sapiens, read-out: TD50 (the source's name)
measured.parameter: CC50 (µM)
Report as a plain number; the unit µM is understood.

CC(=O)O[C@H]1CC[C@@]2(C)C(=CCC3[C@@H]4CC[C@H]([C@H](C)CNCCCCCCCC(=O)O)[C@@]4(C)CC[C@@H]32)C1 (stereo partly specified)
59
C[C@H](C(=O)NCCCCCCC(=O)O)[C@H]1CC[C@H]2C3CC=C4C[C@@H](O)CC[C@]4(C)[C@H]3CC[C@]12C (stereo partly specified)
252
C[C@H](C(=O)NCCCC[C@H](NC(=O)OCc1ccccc1)C(=O)O)[C@H]1CC[C@H]2C3CC=C4C[C@@H](O)CC[C@]4(C)[C@H]3CC[C@]12C (stereo partly specified)
276

Entry C[C@H](CNCCC[C@H](NC(=O)OCc1ccccc1)C(=O)O)[C@H]1CC[C@H]2C3CC=C4C[C@@H](O)CC[C@]4(C)[C@H]3CC[C@]12C (stereo partly specified) , CC50 reported as 417

---

- System: KB
- test.details: Cytotoxicity against KB cell line
- Type: functional
- applied.conditions: Homo sapiens, read-out: TD50 (the source's name)
measured.parameter: CC50 (µM)
# unit: µM | format: bare number

COC(=O)CCCCCNC[C@@H](C)[C@H]1CC[C@H]2C3CC=C4C[C@@H](OC(C)=O)CC[C@]4(C)[C@H]3CC[C@]12C (stereo partly specified)
15.6

The reported CC50 of the compound COC(=O)CCCCCCNC[C@@H](C)[C@H]1CC[C@H]2C3CC=C4C[C@@H](OC(C)=O)CC[C@]4(C)[C@H]3CC[C@]12C (stereo partly specified) was 11.2

What the record says about CC(=O)O[C@H]1CC[C@@]2(C)C(=CCC3[C@@H]4CC[C@H]([C@H](C)CNCCCC(=O)O)[C@@]4(C)CC[C@@H]32)C1 (stereo partly specified) : CC50 is 505

Reported CC50 for C[C@H](C(=O)NCC[C@H](NC(=O)OC(C)(C)C)C(=O)O)[C@H]1CC[C@H]2C3CC=C4C[C@@H](O)CC[C@]4(C)[C@H]3CC[C@]12C (stereo partly specified) was 1270

The measured CC50 associated with CC(=O)O[C@H]1CC[C@@]2(C)C(=CCC3[C@@H]4CC[C@H]([C@H](C)C(=O)NCCC[C@H](NC(=O)OCc5ccccc5)C(=O)O)[C@@]4(C)CC[C@@H]32)C1 (stereo partly specified) reads 147

// field: CC50; key: COC(=O)CNC[C@@H](C)[C@H]1CC[C@H]2C3CC=C4C[C@@H](O)CC[C@]4(C)[C@H]3CC[C@]12C (stereo partly specified) ; value = 45

---

Overview of recorded CC50 for various compounds
- Test system: KB
- test.details: Cytotoxicity against KB cell line
- Format: functional
- applied.conditions: Homo sapiens, read-out: TD50 (the source's name)
All answers are understood in µM, so give the number only.

COC(=O)CNC[C@@H](C)[C@H]1CC[C@H]2C3CC=C4C[C@@H](OC(C)=O)CC[C@]4(C)[C@H]3CC[C@]12C (stereo not given in full)
94.5
C[C@H](C(=O)NCCCCCCCC(=O)O)[C@H]1CC[C@H]2C3CC=C4C[C@@H](O)CC[C@]4(C)[C@H]3CC[C@]12C (stereo not given in full)
377

// below: CC50 requested for another compound
For CC(=O)O[C@H]1CC[C@@]2(C)C(=CCC3[C@@H]4CC[C@H]([C@H](C)CNCCCCCC(=O)O)[C@@]4(C)CC[C@@H]32)C1 (stereo not given in full) the compound record lists CC50 as 433

---

Reported CC50 by item:
- Tested on: KB
- test.details: Cytotoxicity against KB cell line
- Format: functional
- applied.conditions: Homo sapiens, read-out: TD50 (the source's name)

For record COC(=O)CCCCNC(=O)[C@@H](C)[C@H]1CC[C@H]2C3CC=C4C[C@@H](OC(C)=O)CC[C@]4(C)[C@H]3CC[C@]12C (stereo partly specified) the listed CC50 is > 598 µM

---

- Tested on: KB
- test.details: Cytotoxicity against KB cell line
- Assay type: functional
- applied.conditions: Homo sapiens, read-out: TD50 (the source's name)
measured.parameter: CC50 (µM)
Please give a number only; it is taken to be in µM.

C[C@H](C(=O)NCCC[C@H](NC(=O)OCc1ccccc1)C(=O)O)[C@H]1CC[C@H]2C3CC=C4C[C@@H](O)CC[C@]4(C)[C@H]3CC[C@]12C (stereo not given in full)
32

Value of measured CC50 for the entry C[C@H](CNCCCC(=O)O)[C@H]1CC[C@H]2C3CC=C4C[C@@H](O)CC[C@]4(C)[C@H]3CC[C@]12C (stereo not given in full) : 451

---

- Test system: KB
- test.details: Cytotoxicity against KB cell line
- Format: functional
- applied.conditions: Homo sapiens, read-out: TD50 (the source's name)
Reported values of CC50 for individual entries

Some compounds with recorded CC50:
C[C@H](CNCCCCCCCC(=O)O)[C@H]1CC[C@H]2C3CC=C4C[C@@H](O)CC[C@]4(C)[C@H]3CC[C@]12C (stereo partly drawn)
> 633 µM
COC(=O)CCCCCNC(=O)[C@@H](C)[C@H]1CC[C@H]2C3CC=C4C[C@@H](OC(C)=O)CC[C@]4(C)[C@H]3CC[C@]12C (stereo partly drawn)
> 582 µM

Let us move to another entry and its CC50.
Documented CC50 of CC(=O)O[C@H]1CC[C@@]2(C)C(=CCC3[C@@H]4CC[C@H]([C@H](C)C(=O)NCCCC[C@H](NC(=O)OCc5ccccc5)C(=O)OCc5ccccc5)[C@@]4(C)CC[C@@H]32)C1 (stereo partly drawn) : > 400 µM
